Test system: Escherichia coli ATCC BAA-2523
Type: cell-based
setup.conditions: ATCC BAA-2523
Numbered stars: 1 amine (or outer) side, 2 acyl side, 3 side chain; on linkers, the order of the positions; unused ones are H or OH. Bridge positions count the residues as written; N and C are the ends. Square brackets hold non-standard residues; d marks the D form. Peptide text beside a SMILES is read from it. * marks the point of attachment. X3 = O=C([C@@H](Cc1ccc(CS(=O)(=O)O)cc1)N[*:1])[*:2]; Heptanoyl(6-Me) = CC(C)CCCCC(=O)*; dOrn = NCCC[C@@H](N)C(=O)O; Heptanoyl = CCCCCCC(=O)*; Orn = NCCC[C@H](N)C(=O)O; Dab = NCC[C@H](N)C(=O)O
Measured MIC accompanies every entry in the list below.

# compound, MIC
records = [
    ("CC(C)CCCCC(=O)N[C@@H](CCN)C(=O)N[C@H](C(=O)N[C@H](CO)C(=O)N[C@H]1CCNC(=O)[C@H]([C@@H](C)O)NC(=O)[C@H](CCN)NC(=O)[C@H](CCN)NC(=O)[C@H]([C@@H](C)O)NC(=O)[C@@H](Cc2ccc(CS(=O)(=O)O)cc2)NC(=O)[C@H](CCN)NC1=O)[C@@H](C)O [Compound 107] ({Heptanoyl(6-Me)}-[Dab]T[dS][Dab][Dab][X3]T[Dab][Dab]T; lactam 4-C)", "0.03 µg/mL"),
    ("CC(C)CCCCC(=O)N[C@@H](CCN)C(=O)N[C@H](C(=O)N[C@H](CCCN)C(=O)N[C@H]1CCNC(=O)[C@H]([C@@H](C)O)NC(=O)[C@H](CCN)NC(=O)[C@H](CCN)NC(=O)[C@H]([C@@H](C)O)NC(=O)[C@@H](Cc2ccccc2)NC(=O)[C@H](CCN)NC1=O)[C@@H](C)O [Compound 22] ({Heptanoyl(6-Me)}-[Dab]T[dOrn][Dab][Dab][dF]T[Dab][Dab]T; lactam 4-C)", "≤0.03 µg/mL"),
    ("CCCCCCC(=O)N[C@@H](CCN)C(=O)N[C@H](C(=O)N[C@@H](CCCN)C(=O)N[C@H]1CCNC(=O)[C@H]([C@@H](C)O)NC(=O)[C@H](CCN)NC(=O)[C@H](CCN)NC(=O)[C@H](CC(C)C)NC(=O)[C@@H](Cc2ccccc2)NC(=O)[C@H](CCN)NC1=O)[C@@H](C)O [Compound 49] (Heptanoyl-[Dab]T[Orn][Dab][Dab][dF]L[Dab][Dab]T; lactam 4-C)", "0.03 µg/mL"),
]

====

assay.details: Nephrotoxicity assay: in vitro cytotoxicity of HK-2 cells by CCK-8 assay
Type: cell-based
setup.conditions: human, HK-2 cells (human renal), 72 h incubation with drug-containing medium
Numbered stars: 1 amine (or outer) side, 2 acyl side, 3 side chain; on linkers, the order of the positions; unused ones are H or OH. Bridge positions count the residues as written; N and C are the ends. Square brackets hold non-standard residues; d marks the D form. Peptide text beside a SMILES is read from it. * marks the point of attachment. Dab(CH2SO3H) = N[C@@H](CCNCS(=O)(=O)O)C(=O)O; X2 = O=C([C@H](CNCS(=O)(=O)O)N[*:1])[*:2]; Heptanoyl(6-Me) = CC(C)CCCCC(=O)*; dOrn = NCCC[C@@H](N)C(=O)O; Nonanoyl = CCCCCCCCC(=O)*; X1 = CC[C@H](C)CCCCC(=O)*; dDab = NCC[C@@H](N)C(=O)O; Heptanoyl = CCCCCCC(=O)*; Octanoyl = CCCCCCCC(=O)*; Orn = NCCC[C@H](N)C(=O)O; Dab = NCC[C@H](N)C(=O)O; Dap = NC[C@H](N)C(=O)O

# compound, relation.sign, IC50 at 72 h, µg/mL
measured = [
    ("CCCCCCCCC(=O)N[C@@H](CN)C(=O)N[C@H](C(=O)N[C@H](CCN)C(=O)N[C@H]1CCNC(=O)[C@H]([C@@H](C)O)NC(=O)[C@H](CCN)NC(=O)[C@H](CCN)NC(=O)[C@H](CC(C)C)NC(=O)[C@@H](CC(C)C)NC(=O)[C@H](CCN)NC1=O)[C@@H](C)O [Compound 100] (Nonanoyl-[Dap]T[dDab][Dab][Dab][dL]L[Dab][Dab]T; lactam 4-C)", "=", 117),
    ("CC(C)CCCCC(=O)N[C@@H](CCN)C(=O)N[C@H](C(=O)N[C@@H](CNCS(=O)(=O)O)C(=O)N[C@H]1CCNC(=O)[C@H]([C@@H](C)O)NC(=O)[C@H](CCN)NC(=O)[C@H](CCN)NC(=O)[C@H]([C@@H](C)O)NC(=O)[C@@H](Cc2ccccc2)NC(=O)[C@H](CCN)NC1=O)[C@@H](C)O [Compound 112] ({Heptanoyl(6-Me)}-[Dab]T[X2][Dab][Dab][dF]T[Dab][Dab]T; lactam 4-C)", ">", 500),
    ("CCCCCCCC(=O)N[C@@H](CCN)C(=O)N[C@H](C(=O)N[C@@H](CCCN)C(=O)N[C@H]1CCNC(=O)[C@H]([C@@H](C)O)NC(=O)[C@H](CCN)NC(=O)[C@H](CCN)NC(=O)[C@H](CC(C)C)NC(=O)[C@@H](Cc2ccccc2)NC(=O)[C@H](CCN)NC1=O)[C@@H](C)O [Compound 48] (Octanoyl-[Dab]T[Orn][Dab][Dab][dF]L[Dab][Dab]T; lactam 4-C)", "=", 239),
    ("CC[C@H](C)CCCCC(=O)N[C@@H](CCN)C(=O)N[C@H](C(=O)N[C@@H](CN)C(=O)N[C@H]1CCNC(=O)[C@H]([C@@H](C)O)NC(=O)[C@H](CCN)NC(=O)[C@H](CCN)NC(=O)[C@H](CC(C)C)NC(=O)[C@@H](Cc2ccccc2)NC(=O)[C@H](CCN)NC1=O)[C@@H](C)O [Compound 36] (X1-[Dab]T[Dap][Dab][Dab][dF]L[Dab][Dab]T; lactam 4-C)", "=", 237),
    ("CC(C)CCCCC(=O)N[C@@H](CCNCS(=O)(=O)O)C(=O)N[C@H](C(=O)N[C@@H](CN)C(=O)N[C@H]1CCNC(=O)[C@H]([C@@H](C)O)NC(=O)[C@H](CCN)NC(=O)[C@H](CCN)NC(=O)[C@H]([C@@H](C)O)NC(=O)[C@@H](Cc2ccccc2)NC(=O)[C@H](CCN)NC1=O)[C@@H](C)O [Compound 117] ({Heptanoyl(6-Me)}-[Dab(CH2SO3H)]T[Dap][Dab][Dab][dF]T[Dab][Dab]T; lactam 4-C)", ">", 500),
    ("CCCCCCC(=O)N[C@@H](CCN)C(=O)N[C@H](C(=O)N[C@@H](CCCN)C(=O)N[C@H]1CCNC(=O)[C@H]([C@@H](C)O)NC(=O)[C@H](CCN)NC(=O)[C@H](CCN)NC(=O)[C@H](CC(C)C)NC(=O)[C@@H](Cc2ccccc2)NC(=O)[C@H](CCN)NC1=O)[C@@H](C)O [Compound 49] (Heptanoyl-[Dab]T[Orn][Dab][Dab][dF]L[Dab][Dab]T; lactam 4-C)", "=", 367),
    ("CCCCCCCC(=O)N[C@@H](CCN)C(=O)N[C@H](C(=O)N[C@@H](CCN)C(=O)N[C@H]1CCNC(=O)[C@H]([C@@H](C)O)NC(=O)[C@H](CCN)NC(=O)[C@H](CCN)NC(=O)[C@H]([C@@H](C)O)NC(=O)[C@@H](Cc2ccccc2)NC(=O)[C@H](CCN)NC1=O)[C@@H](C)O [Compound 18] (Octanoyl-[Dab]T[Dab][Dab][Dab][dF]T[Dab][Dab]T; lactam 4-C)", ">", 500),
    ("CCCCCCCC(=O)N[C@@H](CCN)C(=O)N[C@H](C(=O)N[C@@H](CN)C(=O)N[C@H]1CCNC(=O)[C@H]([C@@H](C)O)NC(=O)[C@H](CCN)NC(=O)[C@H](CCN)NC(=O)[C@H]([C@@H](C)O)NC(=O)[C@@H](Cc2ccccc2)NC(=O)[C@H](CCN)NC1=O)[C@@H](C)O [Compound 8] (Octanoyl-[Dab]T[Dap][Dab][Dab][dF]T[Dab][Dab]T; lactam 4-C)", ">", 500),
    ("CC(C)CCCCC(=O)N[C@@H](CCN)C(=O)N[C@H](C(=O)N[C@H](CCCN)C(=O)N[C@H]1CCNC(=O)[C@H]([C@@H](C)O)NC(=O)[C@H](CCN)NC(=O)[C@H](CCN)NC(=O)[C@H](CC(C)C)NC(=O)[C@@H](Cc2ccccc2)NC(=O)[C@H](CCN)NC1=O)[C@@H](C)O [Compound 42] ({Heptanoyl(6-Me)}-[Dab]T[dOrn][Dab][Dab][dF]L[Dab][Dab]T; lactam 4-C)", "=", 316),
    ("CC(C)CCCCC(=O)N[C@@H](CN)C(=O)N[C@H](C(=O)N[C@H](CO)C(=O)N[C@H]1CCNC(=O)[C@H]([C@@H](C)O)NC(=O)[C@H](CCN)NC(=O)[C@H](CCN)NC(=O)[C@H]([C@@H](C)O)NC(=O)[C@@H](Cc2ccccc2)NC(=O)[C@H](CCN)NC1=O)[C@@H](C)O [Compound 52] ({Heptanoyl(6-Me)}-[Dap]T[dS][Dab][Dab][dF]T[Dab][Dab]T; lactam 4-C)", ">", 500),
]
